Test system: CAMKK2 (Homo sapiens, UniProt Q96RR4)
Construct: made in house
Sequence (Q96RR4 whole entry): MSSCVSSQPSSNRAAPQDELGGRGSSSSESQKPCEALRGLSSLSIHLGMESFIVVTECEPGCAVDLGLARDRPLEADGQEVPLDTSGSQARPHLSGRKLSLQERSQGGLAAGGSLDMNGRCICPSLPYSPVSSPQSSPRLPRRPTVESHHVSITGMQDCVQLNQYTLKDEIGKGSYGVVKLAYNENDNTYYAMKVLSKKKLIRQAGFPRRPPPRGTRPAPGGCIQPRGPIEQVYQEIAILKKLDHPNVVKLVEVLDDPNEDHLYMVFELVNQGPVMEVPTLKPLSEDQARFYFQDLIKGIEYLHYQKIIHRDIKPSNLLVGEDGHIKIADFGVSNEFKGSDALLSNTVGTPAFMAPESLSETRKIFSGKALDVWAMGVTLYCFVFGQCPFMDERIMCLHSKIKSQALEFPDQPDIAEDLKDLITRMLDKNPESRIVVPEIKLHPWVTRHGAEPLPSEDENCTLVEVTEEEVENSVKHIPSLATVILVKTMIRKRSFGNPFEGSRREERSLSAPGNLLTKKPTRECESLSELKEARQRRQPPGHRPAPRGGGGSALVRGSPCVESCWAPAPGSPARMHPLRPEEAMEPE
Measurement description: CAMKK2 enzyme assay (radiometric, CaMKKtide)
Format: biochemical
Condition summary: 1.0 µM inhibitor
Exercise: for every item that follows, state its recorded PoC (activity remaining).
One number for each entry, in %.

Provide each entry's PoC (activity remaining) from the list below.
1. O=C1NC(=NCc2cccs2)S/C1=C\c1ccc2ncccc2c1
2. COc1cc(N2CCC(N)CC2)ccc1Nc1ncc(Cl)c(-c2c[nH]c3ccccc23)n1
3. COC(=O)[C@@]1(O)C[C@H]2O[C@]1(C)n1c3ccccc3c3c4c(c5c6ccccc6n2c5c31)C(=O)NC4 [K252a]

Given back:
88
26
31

====

Test system: CAMKK2 (Homo sapiens, UniProt Q96RR4)
Construct: made in house
Measurement description: CAMKK2 enzyme assay (radiometric, CaMKKtide)
Type: biochemical
Condition summary: 1.0 µM inhibitor; read-out: PoC (activity remaining)
// assign Condition met if remaining activity at 1 µM falls strictly below 50%, else Condition not met (ties count as Condition not met)

Example entries and their recorded answers appear below.
Chemical string: Cc1cc2c(F)c(Oc3ncnn4cc(OC[C@@H](C)O)c(C)c34)ccc2[nH]1
Test system: CAMKK2 (Homo sapiens, UniProt Q96RR4)
Label value: Condition not met

Chemical string: O=C(c1ccc(/C=C/c2n[nH]c3ccccc23)cc1)N1CCNCC1
Test system: CAMKK2 (Homo sapiens, UniProt Q96RR4)
Label value: Condition met

Chemical string: CC1(COc2ccc3c(c2)ncn3-c2ccc3cccc(N4CCC(N)CC4)c3n2)COC1
Test system: CAMKK2 (Homo sapiens, UniProt Q96RR4)
Label value: Condition met

Chemical string: Cn1c2ccccc2c2c3c(c4c5ccccc5n(CCC#N)c4c21)CNC3=O
Test system: CAMKK2 (Homo sapiens, UniProt Q96RR4)
Label value: Condition not met

Chemical string: c1cc(-c2cnn3cc(-c4ccc(OCCN5CCCCC5)cc4)cnc23)ccn1
Test system: CAMKK2 (Homo sapiens, UniProt Q96RR4)
Label value: Condition not met

Chemical string: C=CCn1c(=O)c2cnc(Nc3ccc(N4CCN(C)CC4)cc3)nc2n1-c1cccc(C(C)(C)O)n1
Test system: CAMKK2 (Homo sapiens, UniProt Q96RR4)
Label value: Condition not met

Chemical string: O=C1NC(=O)/C(=C/c2ccc3nccc(-c4ccncc4)c3c2)S1
Test system: CAMKK2 (Homo sapiens, UniProt Q96RR4)
Label value: Condition met

Consider now this further compound.
Asked: Does Cc1[nH]c(/C=C2\C(=O)Nc3ccc(S(=O)(=O)Cc4c(Cl)cccc4Cl)cc32)c(C)c1C(=O)N1CCC[C@@H]1CN1CCCC1 have remaining activity at 1 µM strictly under 50%?
Given back: Condition not met

====

Exercise: for every item that follows, state its recorded remaining activity at 0.1 µM.
Test system: CAMKK2 (Homo sapiens)
Construct: made in house
Measurement description: CAMKK2 enzyme assay (radiometric, CaMKKtide)
Assay type: biochemical
Condition summary: 0.1 µM inhibitor; read-out: PoC (activity remaining)
Numbers only, in %.

Chemical string: Cc1c[nH]c(-c2cnc(NCCNc3ccc(C#N)cn3)nc2-c2ccc(Cl)cc2Cl)n1
Units symbol: %
remaining activity at 0.1 µM: 101
--
Chemical string: O=C(Nc1nc2cccc(-c3ccc(CN4CCS(=O)(=O)CC4)cc3)n2n1)C1CC1
Units symbol: %
remaining activity at 0.1 µM: 86
--
Chemical string: C1=C/COCc2cc(ccc2OCCN2CCCC2)Nc2nccc(n2)-c2cccc(c2)COC/1
Units symbol: %
remaining activity at 0.1 µM: 78
--
Chemical string: COCCOc1ccc2c(c1)ncn2-c1ccc2cccc(N3CCC(N)CC3)c2n1
Units symbol: %
remaining activity at 0.1 µM: 46
--
Chemical string: O=C(O)c1ccc2c3c1cccc3c(=O)n1c3ccccc3nc21
Units symbol: %
remaining activity at 0.1 µM: 56

Provide each entry's remaining activity at 0.1 µM from the list below.
1. COc1cc(N2CCC(N(C)C)CC2)ccc1Nc1ncc(Cl)c(Nc2ccccc2P(C)(C)=O)n1
2. C=CCn1c(=O)c2cnc(Nc3ccc(N4CCN(C)CC4)cc3)nc2n1-c1cccc(C(C)(C)O)n1
3. Cc1cc2c(F)c(Oc3ncnn4cc(OC[C@@H](C)O)c(C)c34)ccc2[nH]1

Given back:
1. 34
2. 99
3. 100

====

Test system: CAMKK2 (Homo sapiens)
Construct: made in house
Measurement description: CAMKK2 enzyme assay (radiometric, CaMKKtide)
Type: biochemical
Condition summary: 0.1 µM inhibitor; read-out: PoC (activity remaining)
// assign 1.0 if remaining activity at 0.1 µM falls strictly below 80%, else 0.0 (ties count as 0.0)

Example entries and their recorded answers appear below.
Molecule: CN(C)S(=O)(=O)c1ccc2c(c1)/C(=C/c1cc3c([nH]1)CCCC3)C(=O)N2 [SU6656]
Test system: CAMKK2 (Homo sapiens)
Label value: 0.0
//
Molecule: COc1cc(N2CCC(N3CCN(C)CC3)CC2)ccc1Nc1ncc(Cl)c(Nc2ccccc2S(=O)(=O)C(C)C)n1 [TAE684]
Test system: CAMKK2 (Homo sapiens)
Label value: 0.0
//
Molecule: CC(C)c1cc(CNc2nc(Nc3cc(C4CC4)[nH]n3)cc(N3CCN(C)CC3)n2)on1 [XL228]
Test system: CAMKK2 (Homo sapiens)
Label value: 1.0
//
Molecule: O=C(O)c1ccc(-c2c[nH]c3ncc(-c4ccccc4)cc23)cc1C1CCCC1 [GSK650394]
Test system: CAMKK2 (Homo sapiens)
Label value: 1.0
//
Molecule: O=C(c1ccc(/C=C/c2n[nH]c3ccccc23)cc1)N1CCNCC1 [KW2449]
Test system: CAMKK2 (Homo sapiens)
Label value: 0.0
//
Molecule: CNC(=O)c1nn(C)c2c1C(C)(C)Cc1cnc(Nc3ccc(N4CCN(C)CC4)cc3)nc1-2 [Milciclib]
Test system: CAMKK2 (Homo sapiens)
Label value: 0.0
//
Molecule: CCS(=O)(=O)Nc1ccc2c(c1)/C(=C(/Nc1ccc(CN3CCCCC3)cc1)c1ccccc1)C(=O)N2 [Hesperadin]
Test system: CAMKK2 (Homo sapiens)
Label value: 0.0

Asked: Does CC(=O)c1cnc2ccc(-c3cc(Cl)c(O)c(Cl)c3)nc2c1N[C@H]1CC[C@H](CN(C)C)CC1 [OTSSP167] have remaining activity at 0.1 µM strictly under 80%?
Given back: 1.0

====

Test system: CAMKK2 (Homo sapiens)
Construct: made in house
Measurement description: CAMKK2 enzyme assay (radiometric, CaMKKtide)
Format: biochemical
Condition summary: 0.1 µM inhibitor
// assign True if PoC (activity remaining) falls strictly below 90%, else False (ties count as False)

Example entries and their recorded answers appear below.
Compound: CNC(=O)c1ccccc1Nc1nc(Nc2ccc(N3CCOCC3)cc2OC)ncc1Cl [TAE226]
Label value: False
//
Compound: O=C1Nc2cc(Br)ccc2/C1=C1/Nc2ccccc2/C1=N\O [BIO]
Label value: False
//
Compound: O=C1NC(=NCc2cccs2)S/C1=C\c1ccc2ncccc2c1 [Ro 3306]
Label value: False

Asked: Does c1ccc2c(-c3cnn4cc(-c5ccc(N6CCNCC6)cc5)cnc34)ccnc2c1 [LDN 193189] have PoC (activity remaining) strictly under 90%?
Given back: True

Asked: Now give it for COc1cc(N2CCC(N)CC2)ccc1Nc1ncc(Cl)c(-c2c[nH]c3ccccc23)n1 [AZD 3463] too.
Given back: True

====

Test system: CAMKK2 (Homo sapiens)
Construct: made in house
Measurement description: CAMKK2 enzyme assay (radiometric, CaMKKtide)
Format: biochemical
Condition summary: 1.0 µM inhibitor; read-out: PoC (activity remaining)
Exercise: for every item that follows, state its recorded remaining activity at 1 µM.
Give bare numbers, in %.

Below, 3 molecules whose answers are already recorded.
Chemical string: CCc1nc(C(N)=O)c(Nc2ccc(N3CCC(N4CCN(C)CC4)CC3)c(OC)c2)nc1NC1CCOCC1
Test system: CAMKK2 (Homo sapiens)
remaining activity at 1 µM / %: 18

Chemical string: CC[C@@H]1C(=O)N(C)c2cnc(Nc3ccc(C(=O)N[C@H]4CC[C@H](N5CCN(CC6CC6)CC5)CC4)cc3OC)nc2N1C(C)C
Test system: CAMKK2 (Homo sapiens)
remaining activity at 1 µM / %: 75

Chemical string: C[C@@H](Oc1cc(-n2cnc3ccc(CN4CCN(C)CC4)cc32)sc1C(N)=O)c1ccccc1C(F)(F)F
Test system: CAMKK2 (Homo sapiens)
remaining activity at 1 µM / %: 92

Provide each entry's remaining activity at 1 µM from the list below.
1. COCCOc1ccc2c(c1)ncn2-c1ccc2cccc(N3CCC(N)CC3)c2n1
2. CNC(=O)c1nn(C)c2c1C(C)(C)Cc1cnc(Nc3ccc(N4CCN(C)CC4)cc3)nc1-2
3. CCOc1cc2ncc(C#N)c(Nc3ccc(F)c(Cl)c3)c2cc1NC(=O)/C=C/CN(C)C

Given back:
[17, 76, 60]

====

Test system: CAMKK2 (Homo sapiens, UniProt Q96RR4)
Construct: made in house
Measurement description: CAMKK2 enzyme assay (radiometric, CaMKKtide)
Type: biochemical
Condition summary: 0.01 µM inhibitor; read-out: PoC (activity remaining)
Readout label: remaining activity at 0.01 µM (%)
Numbers only, in %.

Molecule: COc1cc(N2CCC(N3CCN(C)CC3)CC2)ccc1Nc1ncc(Cl)c(Nc2ccccc2S(=O)(=O)C(C)C)n1 [TAE684]
Test system: CAMKK2 (Homo sapiens, UniProt Q96RR4)
remaining activity at 0.01 µM, %: 97

Molecule: CCOc1cc2ncc(C#N)c(Nc3ccc(F)c(Cl)c3)c2cc1NC(=O)/C=C/CN(C)C [Pelitinib]
Test system: CAMKK2 (Homo sapiens, UniProt Q96RR4)
remaining activity at 0.01 µM, %: 100

Molecule: CCS(=O)(=O)Nc1ccc2c(c1)/C(=C(/Nc1ccc(CN3CCCCC3)cc1)c1ccccc1)C(=O)N2 [Hesperadin]
Test system: CAMKK2 (Homo sapiens, UniProt Q96RR4)
remaining activity at 0.01 µM, %: 99

Molecule: O=C(c1ccc(/C=C/c2n[nH]c3ccccc23)cc1)N1CCNCC1 [KW2449]
Test system: CAMKK2 (Homo sapiens, UniProt Q96RR4)
remaining activity at 0.01 µM, %: 96

Molecule: C1=C/COCc2cc(ccc2OCCN2CCCC2)Nc2nccc(n2)-c2cccc(c2)COC/1 [Pacritinib]
Test system: CAMKK2 (Homo sapiens, UniProt Q96RR4)
remaining activity at 0.01 µM, %: 96

Molecule: CN(C)S(=O)(=O)c1ccc2c(c1)/C(=C/c1cc3c([nH]1)CCCC3)C(=O)N2 [SU6656]
Test system: CAMKK2 (Homo sapiens, UniProt Q96RR4)
remaining activity at 0.01 µM, %: 95

Molecule: CN1CC[C@H](c2c(O)cc(O)c3c(=O)cc(-c4ccccc4Cl)oc23)[C@H](O)C1 [Alvocidib]
Test system: CAMKK2 (Homo sapiens, UniProt Q96RR4)
remaining activity at 0.01 µM, %: 102

Asked: Report remaining activity at 0.01 µM for CC(C)c1cc(CNc2nc(Nc3cc(C4CC4)[nH]n3)cc(N3CCN(C)CC3)n2)on1 [XL228] please.
Given back: 94
